method summary: APR_HepG2_MitoticArrest_1hr: Apredica 1-hour HepG2 Assay for Mitotic Arrest (AID 2282672)
measurement context: high-content imaging, actives raise or lower the signal
Activity calls are given as the source filed them. How the source made its calls: active means hit-call score of the fitted dose curve at least 0.9, where 1 is the maximum; inactive means score below 0.9.
reported endpoint: outcome

>>> result("N#CN=C1SCCN1Cc1ccc(Cl)nc1")
"inactive"
>>> result("COCC(=O)N(c1c(C)cccc1C)C(C)C(=O)OC (configuration not stated)")
"inactive"
>>> result("O=c1n(Cl)c(=O)n(Cl)c(=O)n1Cl")
"inactive"
>>> result("COc1cc(Cl)c(OC)cc1Cl")
"inactive"
>>> result("CC1(C)CCC(=Cc2ccc(Cl)cc2)C1(O)Cn1cncn1 (configuration not stated)")
"inactive"
>>> result("O=C(Nc1ccccc1-c1ccc(Cl)cc1)c1cccnc1Cl")
"inactive"
>>> result("CCOc1nc(C(Cl)(Cl)Cl)ns1")
"inactive"
>>> result("CCOC(=O)C(C)OC(=O)c1cc(Oc2ccc(C(F)(F)F)cc2Cl)ccc1[N+](=O)[O-] (configuration not stated)")
"inactive"
>>> result("CCOc1cc(C(C)(C)C)ccc1C1COC(c2c(F)cccc2F)=N1 (configuration not stated)")
"inactive"
>>> result("CO/N=C(/C1=NOCCO1)c1ccccc1Oc1ncnc(Oc2ccccc2Cl)c1F")
"inactive"
>>> result("COP(=S)(OC)Oc1ccc([N+](=O)[O-])c(C)c1")
"inactive"
>>> result("Cn1c(-c2ccccc2)cc(-c2ccccc2)[n+]1C")
"inactive"

----------
method summary: BSK_KF3CT_SRB: Viability Assessment in the BioMAP Diversity Plus: KF3CT Assay (AID 2283069);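 further: total protein by sulforhodamine B staining as a cytotoxicity measure; read 24 h after compound addition; fitted for both signal gain and loss against DMSO baseline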
measurement context: primary human keratinocytes with fibroblasts
Method: BSK_KF3CT is a cell-based, multiplexed-readout assay that uses keratinocytes and foreskin fibroblasts, a human skin primary cell co-culture, with measurements taken at 24 hours after chemical dosing in a 96-well plate.BSK_KF3CT_SRB is an assay component measured in the BSK_KF3CT assay. It measures 0.1% sulforhodamine related to cell death using Sulforhodamine staining technology.Data from the assay component BSK_KF3CT_SRB was analyzed into 1 assay endpoint. […]
Active and inactive are the calls of the source. How the source made its calls: active means hit-call score of the fitted dose curve at least 0.9, where 1 is the maximum; inactive means score below 0.9.
Possible outcomes: active, inactive

>>> group("CS(=O)(=O)c1ccc(C(=O)C2C(=O)CCCC2=O)c([N+](=O)[O-])c1")
"inactive"
>>> group("CCCCC(C#N)(Cn1cncn1)c1ccc(Cl)cc1 (configuration not stated)")
"inactive"
>>> group("CCOc1nc(C(Cl)(Cl)Cl)ns1")
"inactive"
>>> group("Cn1c(-c2ccccc2)cc(-c2ccccc2)[n+]1C")
"inactive"
>>> group("COc1cc(OC)nc(NC(=O)NS(=O)(=O)c2ncccc2OCC(F)(F)F)n1")
"inactive"
>>> group("CCNC(=O)NC(=O)C(C#N)=NOC")
"inactive"
>>> group("Clc1cccc(C(Cl)(Cl)Cl)n1")
"inactive"
>>> group("CC(C)N1C(=O)c2ccccc2NS1(=O)=O")
"inactive"
>>> group("COP(=O)(OC)O/C(C)=C/C(=O)N(C)C")
"inactive"
>>> group("CCCCOCN(C(=O)CCl)c1c(CC)cccc1CC")
"active"
>>> group("Cc1cnc(C2=NC(C)(C(C)C)C(=O)N2)c(C(=O)O)c1 (configuration not stated)")
"inactive"
>>> group("CC(C)N1C(=O)N(c2ccccc2)CSC1=NC(C)(C)C")
"active"

----------
method summary: IUF_NPC1b_proliferation_BrdU_72hr: Leibniz Research Institute for Environmental Medicine (IUF) 72-hour Neural Progenitor Cell Bromodeoxyuridine (BrdU) Proliferation Assay (NPC1b) (AID 2284207)
Calls of active or inactive are those of the source. How the source made its calls: active means hit-call score of the fitted dose curve at least 0.9, where 1 is the maximum; inactive means score below 0.9.
reported endpoint: AC50

>>> result("CN/C(=N\\[N+](=O)[O-])NCc1cnc(Cl)s1")
"inactive"
>>> result("CCNC(=O)NC(=O)C(C#N)=NOC")
"inactive"
>>> result("CS(=O)(=O)c1ccc(C(=O)C2C(=O)CCCC2=O)c([N+](=O)[O-])c1")
"inactive"
>>> result("CC1(C)C(C=C(Cl)Cl)C1C(=O)OC(C#N)c1cccc(Oc2ccccc2)c1 (centres undefined)")
"inactive"
>>> result("CNC(=O)Oc1cccc2ccccc12")
"inactive"
>>> result("CC(C)(C)C(=O)C(Oc1ccc(Cl)cc1)n1cncn1 (centres undefined)")
"513 nM (active)"
>>> result("N#CN=C1SCCN1Cc1ccc(Cl)nc1")
"inactive"
>>> result("COP(=S)(OC)SCn1nnc2ccccc2c1=O")
"inactive"
>>> result("COC(=O)N(C(=O)N1CO[C@@]2(C(=O)OC)Cc3cc(Cl)ccc3C2=N1)c1ccc(OC(F)(F)F)cc1")
"483 nM (active)"

----------
Read-out: Monocyte Chemoattractant Protein-1 (MCP1), CCL2 (gene 6347)
method summary: BSK_SAg_MCP1: BioMAP Diversity Plus: SAg Assay for Monocyte Chemoattractant Protein-1 (MCP1) Biomarker Activity (AID 2283090)
measurement context: primary human HUVEC with PBMC; actives raise or lower the signal
Activity calls are given as the source filed them. How the source made its calls: active means hit-call score of the fitted dose curve at least 0.9, where 1 is the maximum; inactive means score below 0.9.
Possible outcomes: active, inactive

>>> group("CCCCC(C#N)(Cn1cncn1)c1ccc(Cl)cc1 (configuration not stated)")
"inactive"
>>> group("COc1ccc(-c2ccccc2)cc1NNC(=O)OC(C)C")
"inactive"
>>> group("CN/C(=N\\[N+](=O)[O-])NCc1cnc(Cl)s1")
"inactive"
>>> group("CC(C)N1C(=O)N(c2ccccc2)CSC1=NC(C)(C)C")
"active"
>>> group("COc1cc(Cl)c(OC)cc1Cl")
"inactive"
>>> group("CCCN(CC)CC1COC2(CCC(C(C)(C)C)CC2)O1 (configuration not stated)")
"inactive"
>>> group("CC(C)=CC1C(C(=O)OCc2coc(Cc3ccccc3)c2)C1(C)C (configuration not stated)")
"active"
>>> group("CC(C)Oc1cccc(NC(=O)c2ccccc2C(F)(F)F)c1")
"inactive"
>>> group("COC(=O)NS(=O)(=O)c1ccc(N)cc1")
"inactive"
>>> group("COc1cc(OC)nc(NC(=O)NS(=O)(=O)c2ncccc2OCC(F)(F)F)n1")
"inactive"
>>> group("CCCCOCN(C(=O)CCl)c1c(CC)cccc1CC")
"active"
>>> group("O=c1n(Cl)c(=O)n(Cl)c(=O)n1Cl")
"active"

----------
method summary: ATG_PXRE_CIS: Attagene CIS-FACTORIAL HepG2 Assay for human Pregnane X Receptor Element (PXRE) (AID 2282957)
measurement context: HepG2 Attagene CIS-FACTORIAL PXRE reporter, mRNA; actives raise or lower the signal
Activity calls are given as the source filed them. How the source made its calls: active means hit-call score of the fitted dose curve at least 0.9, where 1 is the maximum; inactive means score below 0.9.
Possible outcomes: y = active, n = inactive

>>> group("O=C(O)c1c(Cl)ccc2cc(Cl)cnc12")
"n"
>>> group("COC(=O)NC(=S)Nc1ccccc1NC(=S)NC(=O)OC")
"y"
>>> group("CCNP(=S)(OC)O/C(C)=C/C(=O)OC(C)C (stereo not drawn)")
"y"

----------
Read-out: ABC Transporter (ABCB11), ABCB11 (gene 8647)
method summary: CLD_ABCB11_6hr: CellzDirect (CLD) Gene Expression Assay for ABC Transporter (ABCB11) at 6 hours (AID 2283675);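 further: hits raise ABCB11 mRNA level so AC50 marks induction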
Results filed as inconclusive are left out. Calls of active or inactive are those of the source. How the source made its calls: active means hit-call score of the fitted dose curve at least 0.9, where 1 is the maximum; inconclusive means response in the unintended direction; inactive means score below 0.9.
reported endpoint: outcome

>>> result("CCCC(=NOCC)C1=C(O)CC(CC(C)SCC)CC1=O (stereo unspecified)")
"inactive"
>>> result("C=CCOC(=O)C(C)(C)OC(=O)c1cc(-n2c(=O)cc(C(F)(F)F)n(C)c2=O)ccc1Cl")
"inactive"
>>> result("CC(C)(C)C(=O)C(Oc1ccc(Cl)cc1)n1cncn1 (stereo unspecified)")
"inactive"
>>> result("O=C1C2CC=CCC2C(=O)N1SC(Cl)(Cl)Cl (stereo unspecified)")
"inactive"
>>> result("CSC(=O)c1c(C(F)F)nc(C(F)(F)F)c(C(=O)SC)c1CC(C)C")
"inactive"
>>> result("CO/N=C(/C1=NOCCO1)c1ccccc1Oc1ncnc(Oc2ccccc2Cl)c1F")
"inactive"
>>> result("COC(=O)NS(=O)(=O)c1ccc(N)cc1")
"inactive"
>>> result("CCOc1nc(F)cc2nc(S(=O)(=O)Nc3c(Cl)cccc3Cl)nn12")
"inactive"
>>> result("COP(=S)(OC)SCn1nnc2ccccc2c1=O")
"inactive"
>>> result("Cc1nc(N(C)C)nc(OC(=O)N(C)C)c1C")
"inactive"
>>> result("COc1cc(OC)nc(NC(=O)NS(=O)(=O)c2ncccc2OCC(F)(F)F)n1")
"inactive"
>>> result("CCOc1cc(C(C)(C)C)ccc1C1COC(c2c(F)cccc2F)=N1 (stereo unspecified)")
"inactive"
>>> result("O=P(O)(O)CCCl")
"inactive"
>>> result("Nc1c(Cl)c(F)nc(OCC(=O)O)c1Cl")
"inactive"
>>> result("OC(c1ccc(Cl)cc1)(c1ccc(Cl)cc1)C(Cl)(Cl)Cl")
"inactive"
>>> result("CCOP(=S)(OCC)Oc1nc(Cl)n(C(C)C)n1")
"inactive"
